Source of measurements: patent US20140087995A1

- Measured on: T1, human calcitonin receptor (human, UniProt P30988 25-474)
- T1 sequence (looked up): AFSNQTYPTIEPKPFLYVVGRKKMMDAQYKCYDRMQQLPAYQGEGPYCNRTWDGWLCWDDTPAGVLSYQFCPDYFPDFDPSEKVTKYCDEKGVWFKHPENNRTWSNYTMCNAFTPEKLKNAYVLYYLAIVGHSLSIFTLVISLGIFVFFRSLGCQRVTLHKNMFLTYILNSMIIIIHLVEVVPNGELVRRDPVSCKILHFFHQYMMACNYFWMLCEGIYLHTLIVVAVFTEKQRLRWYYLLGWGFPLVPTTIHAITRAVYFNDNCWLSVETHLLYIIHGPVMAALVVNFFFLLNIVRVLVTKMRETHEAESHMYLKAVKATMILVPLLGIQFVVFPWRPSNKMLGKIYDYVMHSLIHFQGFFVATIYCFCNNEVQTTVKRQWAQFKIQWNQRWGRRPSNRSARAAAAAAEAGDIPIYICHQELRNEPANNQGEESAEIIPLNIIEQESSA
- Assay text: cell-based or functional assay
Provide the reported Ratio hCT/hAmylin funct. of each item.

Consider the worked cases shown below.
Binder	Ratio hCT/hAmylin funct.
KCNTATCATQRLANFLRHSSPNFGAIPSSTNVGSKTY (C20 diacid-gGlu on the alpha amino group of the N-terminal residue; disulfide bridge Cys2-Cys7; C-terminal amide, also called compound 34) [N^α1-[(4S)-4-carboxy-4-(19-carboxynonadecanoylamino)butanoyl]-[Arg17,Pro21,Pro27,Lys35]-h-amylin]	8.4
KCNTATCATQRLANFLRHSSPNFGAIPSSTNVGSETY (C20 diacid-gGlu on the alpha amino group of the N-terminal residue; disulfide bridge Cys2-Cys7; C-terminal amide, also called compound 23) [N^α1-[(4S)-4-carboxy-4-(19-carboxynonadecanoylamino)butanoyl]-[Arg17,Pro21,Pro27,Glu35]-h-amylin]	8.9

Prompt: Report measured Ratio hCT/hAmylin funct.; entry is KCNTATCATQRLAEFLRHSSPNFGAIPSSTNVGSNTY (C20 diacid-gGlu-2xOEG on the alpha amino group of the N-terminal residue; disulfide bridge Cys2-Cys7; C-terminal amide, also called compound 19)
Response: 17.4
